test: clinical; details: human, in vivo, po, Cmax, dose 320 mg/m^2 oral irinotecan + 15 mg HM30181A; N = 3
Readout Kind: Cmax (ng/mL)
Numbers only, in ng/mL.

Can you share its Cmax? I mean this compound: CCc1c2c(nc3ccc(OC(=O)N4CCC(N5CCCCC5)CC4)cc13)-c1cc3c(c(=O)n1C2)COC(=O)[C@]3(O)CC [oral irinotecan, reference compound]
1060

---

details: dose 320 mg/m^2
Readout Kind: Observed Mean (Cmax)
Lab note: write values as number then unit, every time.

Which measured Observed Mean (Cmax) value corresponds to `CCc1c2c(nc3ccc(O)cc13)-c1cc3c(c(=O)n1C2)COC(=O)[C@]3(O)CC` ?
38.7 ng/mL
